Test system: FLT3-autoinhibited;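 note: KINOMEscan kinase panel screen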
Settings: concentration: 1 μM, replicates: in singlicate; n = 1
measuredEndpoint: %Inh
Please append the unit to your numeric answer.

| molecule | reading |
| --- | --- |
| Cc1cccc(-c2nc(Nc3ccncc3)c3ccccc3n2)n1 [GW855857] | 0% |
| Cc1cccc(-c2nc(Nc3ccc4[nH]ncc4c3)c3ccccc3n2)n1 [GW857175] | 32% |
| CC(C)(C)c1ccc(C(=O)Nc2cn3cc(-c4cccnc4)ccc3n2)cc1 | 0% |

Turning now to a further record.
INPUT: Notebook entry, FLT3-autoinhibited assay: %Inh of Nc1nc(-c2nccs2)c(-c2ccnc3ccccc23)s1 [GW693542] = ?
OUTPUT: 0%
